Provide the recorded Kd for the entries that follow.
- Measurement Target: T1, EsCas13d, nuclease-dead (Eubacterium siraeum, UniProt B0MS50, R295A;H300A;R849A;H854A)
- T1 sequence: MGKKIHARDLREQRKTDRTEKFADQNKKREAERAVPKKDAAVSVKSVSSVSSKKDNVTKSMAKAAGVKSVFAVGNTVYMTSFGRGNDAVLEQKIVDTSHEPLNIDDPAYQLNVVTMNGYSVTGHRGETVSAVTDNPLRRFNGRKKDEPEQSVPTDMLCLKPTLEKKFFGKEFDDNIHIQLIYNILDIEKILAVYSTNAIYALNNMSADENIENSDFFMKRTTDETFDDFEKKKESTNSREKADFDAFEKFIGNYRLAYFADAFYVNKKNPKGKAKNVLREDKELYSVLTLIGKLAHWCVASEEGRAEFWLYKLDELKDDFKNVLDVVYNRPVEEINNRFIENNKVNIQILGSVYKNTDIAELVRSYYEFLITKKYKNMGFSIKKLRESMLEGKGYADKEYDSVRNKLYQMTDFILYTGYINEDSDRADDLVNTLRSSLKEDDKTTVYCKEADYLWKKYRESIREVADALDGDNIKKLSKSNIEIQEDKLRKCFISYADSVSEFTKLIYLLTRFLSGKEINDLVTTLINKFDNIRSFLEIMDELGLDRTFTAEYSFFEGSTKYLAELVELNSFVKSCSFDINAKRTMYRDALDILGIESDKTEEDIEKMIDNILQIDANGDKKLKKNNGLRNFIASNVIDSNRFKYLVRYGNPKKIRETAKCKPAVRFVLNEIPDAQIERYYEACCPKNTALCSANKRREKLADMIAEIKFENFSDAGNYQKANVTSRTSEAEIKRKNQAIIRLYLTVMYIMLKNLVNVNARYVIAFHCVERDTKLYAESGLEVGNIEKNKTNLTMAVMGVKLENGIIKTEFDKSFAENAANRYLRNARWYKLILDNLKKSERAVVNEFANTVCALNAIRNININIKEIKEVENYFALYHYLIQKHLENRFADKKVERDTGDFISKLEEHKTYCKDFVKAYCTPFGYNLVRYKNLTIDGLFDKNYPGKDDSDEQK
- Protocol Details: crRNA (strand 1, pre-loaded); Mg2+; 40 mM Tris-HCl pH 7.5, 150 mM NaCl, 6 mM MgCl2, 1 mM DTT, 0.1% Tween-20, 0.2 mg/ml BSA; 25 C; 10 min per concentration, then washed
- Protocol Conditions: tags: His6-TwinStrep-SUMO cleaved; N-terminal SNAP kept (SNAP-Surface 488); label: 3' end held by stalled T7 RNA polymerase
State the answer as a number, implicitly in nM.

Exercise: Read the entry target 2 MT 5'PFS CAG 3'PFS AUC (mixed) RNA 1: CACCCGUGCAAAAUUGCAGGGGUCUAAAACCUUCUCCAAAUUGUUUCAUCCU RNA 2: GGGAAUGGAUCCACAUCUACGAAUUCCAGAGGAUGAAACAAUUUGGAGAAGAUCAGAUCGGAAGAGCACACGU and write its reported Kd.
Solution: 7

Exercise: Read the entry target 1 MT 5'PFS GGC 3'PFS UGU (mixed) RNA 1: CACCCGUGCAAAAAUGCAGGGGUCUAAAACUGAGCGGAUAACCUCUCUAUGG RNA 2: GGGAAUGGAUCCACAUCUACGAAUUCGGCCCAUAGAGAGGUUAUCCGCUCAUGUAGAUCGGAAGAGCACACGU and write its reported Kd.
Solution: 16.1

Exercise: Read the entry target 1 insG 3' of 14,insU 3' of 4 (mixed) RNA 1: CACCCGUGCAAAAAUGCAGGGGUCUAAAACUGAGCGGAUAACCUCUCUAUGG RNA 2: GGGAAUGGAUCCACAUCUACGAAUUCGUACCAUAGAGAGGGUUAUCCGCUUCACCGAGAUCGGAAGAGCACACGU and write its reported Kd.
Solution: 11.7
